- measurement protocol: In vivo pharmacokinetics
- Design: species or system Sprague-Dawley rats
- measurement setup: male, Sprague-Dawley, rat, plasma, iv, 8 mg/kg
assay endpoint: Cmax (ng/mL)
Dear colleague, please return just the value in ng/mL, with no unit written.

Identify Cmax associated with the compound O=c1[nH]cc(F)c(=O)[nH]1
11200

* * *

- measurement protocol: Chemical stability in different pH hydrochloride and phosphate buffers at 37 °C
- Assay type: physicochemical
- measurement setup: hydrochloride or phosphate buffer (PBS), pH 1.2
assay endpoint: half-life at 80 µg/ml
Kindly format the answer as number then unit.

Identify half-life at 80 µg/ml associated with the compound O=C(O)CCCCC(=O)OCn1cc(F)c(=O)[nH]c1=O
38.3 h

Identify half-life at 80 µg/ml associated with the compound O=C(O)CCCCCCC(=O)OCn1cc(F)c(=O)[nH]c1=O
36.8 h

* * *

Provide the reported half-life at 80 µg/ml of each item.
- measurement protocol: Chemical stability in different pH hydrochloride and phosphate buffers at 37 °C
- Type: physicochemical
- measurement setup: hydrochloride or phosphate buffer (PBS), pH 7.4
Dear colleague, please return just the value in h, with no unit written.

Identify half-life at 80 µg/ml associated with the compound O=C(O)CCCCC(=O)OCn1cc(F)c(=O)[nH]c1=O
143

Identify half-life at 80 µg/ml associated with the compound O=C(O)CCCCCCC(=O)OCn1cc(F)c(=O)[nH]c1=O
152

* * *

- measurement protocol: In vivo pharmacokinetics
- Design: species or system Sprague-Dawley rats
- measurement setup: male, Sprague-Dawley, rat, plasma, iv, 8 mg/kg
assay endpoint: Tmax (min)
Dear colleague, please return just the value in min, with no unit written.

Identify Tmax associated with the compound O=c1[nH]cc(F)c(=O)[nH]1
4.8
